test system: Murine Splenocytes; experiment: Cytotoxicity on uninfected ex vivo explants; format: cell-based, mouse; details: CC50 non-infected mouse splenocytes / EC50 amastigotes
measuredProperty: SIS Selectivity Index (mouse splenocytes)

>  <compound>
COc1cc([C@@H]2c3cc4c(cc3C[C@H]3COC(=O)[C@@H]32)OCO4)cc(OC)c1OC

>  <valueReported>
<1.0

$$$$
>  <compound>
COc1cc([C@@H]2c3cc4c(cc3[C@H](O)[C@H]3COC(=O)[C@H]23)OCO4)cc(OC)c1OC

>  <valueReported>
>7.4

$$$$
>  <compound>
COc1cc([C@@H]2c3cc4c(cc3C(=O)[C@H]3COC(=O)[C@H]23)OCO4)cc(OC)c1OC

>  <valueReported>
<0.6

$$$$
>  <compound>
CCCCCCCCCCCCCCCCOP(=O)([O-])OCC[N+](C)(C)C [Miltefosine, miltefosine, reference compound]

>  <valueReported>
26.9

$$$$
>  <compound>
COC(=O)[C@@H]1C(C=O)=Cc2cc3c(cc2[C@H]1c1cc(OC)c(OC)c(OC)c1)OCO3

>  <valueReported>
> 10.8

$$$$
